Examples of molecules with documented activity follow.
- METHOD_SUMMARY: cytotoxicity in NIH3T3 fibroblasts, dose response, cytotoxicity control, cell-based, plate reader, cherry-pick, two tests (AID 651900)
- EXPERIMENTAL_CONTEXT: test 2 concentration series, at 26 µM
The list shows a part of the results.
Report only the number, with the unit % understood.

>>> df
                               given_smiles  value
0  Cc1ccc(Cc2c(C)nc3nc(SCC(=O)NCCN4CCOCC4)nn3c2C)cc1  -6.78
1           C=C(C)CSc1nc(N)c2c3c(sc2n1)CCC3   4.68
2  Cn1c(=O)c2c(nc(OCc3cccnc3)n2Cc2ccccc2)n(C)c1=O  -10.3
3  O=C(CSc1n[nH]c(-c2cccnc2)n1)Nc1ccnc2ccccc12  -10.2
4       CC(=O)CSc1nnc(CSc2ncccn2)n1C1CCCCC1    1.8

Now turn to the next molecule.
Name the reported activity value associated with the molecule `CC(=O)c1ccc(N2CCN(C(=O)c3ccc4nc[nH]c4c3)CC2)cc1` -0.738

Data provenance: PubChem BioAssay AID651900
